Assay: recombinant barcode read abundance after kanamycin selection (control-corrected) (log10(CPM+1)); higher = more efficient recombination; sequences stand for … in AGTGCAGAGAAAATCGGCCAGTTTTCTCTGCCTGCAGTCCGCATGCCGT…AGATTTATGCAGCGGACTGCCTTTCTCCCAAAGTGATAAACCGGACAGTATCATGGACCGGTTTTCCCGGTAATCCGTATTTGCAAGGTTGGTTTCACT; site = the 11-nt target;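 note: IS621 recombinase and bridge RNA in Escherichia coli cells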
Property Label: recombinant barcode read abundance (log10)
No unit in the answer, please; the number alone is enough.

GET /values?readout=recombinant barcode read abundance (log10)&item= GTCTGTTCTTGGGTTCTAACCTGTTGCCT (site GGCTGTTCTAG)
0.16

What value of measured recombinant barcode read abundance (log10) is listed for GATTGGACTTGGGTTCTAACCTGTTGCTT (site TATTGGACTAA) ?
0.128

Which recombinant barcode read abundance (log10) is listed for ATCGGACCTTGGGTTCTAACCTGTTGCTG (site ATCGGACCTCA) ?
0.901

# get_value(readout='recombinant barcode read abundance (log10)', item= GGATATCCTTGGGTTCTAACCTGTTGCTT (site CAGGTGACTCC) )
0

If you can, please state the reported recombinant barcode read abundance (log10) value of TACAGGACTTGGGTTCTAACCTGTTGCAG (site TACAGGACTCT) .
2.15

Suppose we examine the sequence CCATACCCTTGGGTTCTAACCTGTTGCTA (site CCATACCCTTA) ; what recombinant barcode read abundance (log10) value has been reported?
0.884

What does the record list as recombinant barcode read abundance (log10) for CCTGATTCTTGGGTTCTAACCTGTTGCCT (site CCTGATTCTAG) ?
0.322

Value lookup for recombinant barcode read abundance (log10); key = GACACGCCTTGGGTTCTAACCTGTTGCAT (site GACACGCCTAA)
0.0135

Any idea what its recombinant barcode read abundance (log10) is? The sequence is CTAGTAGCTTGGGTTCTAACCTGTTGCGT (site CTAGTAGCTCC)
0.378

Item TAGTACCCTTGGGTTCTAACCTGTTGCAG (site TAGTACCCTCT) has what recorded recombinant barcode read abundance (log10)?
1.23

Item AGTTTCACTTGGGTTCTAACCTGTTGCCT (site AGTTCCACTAG) has what recorded recombinant barcode read abundance (log10)?
0.0621

Find the recorded recombinant barcode read abundance (log10) belonging to TGCGTTCCTTGGGTTCTAACCTGTTGCGT (site TGCGTCACTAC) and report it.
0.0759

What value of recombinant barcode read abundance (log10) has been reported for the following sequence? CCTCGCACTTGGGTTCTAACCTGTTGCGA (site CCTCGCACTTC)
0.112

Please report the recorded recombinant barcode read abundance (log10) for GGTCATCCTTGGGTTCTAACCTGTTGCCT (site GGTCATACTAG) .
0.127

# get_value(readout='recombinant barcode read abundance (log10)', item= TGTGCTCCTTGGGTTCTAACCTGTTGCAG (site TGTGCACCTGT) )
0.294

// recombinant barcode read abundance (log10) lookup, key: CGTGAACCTTGGGTTCTAACCTGTTGCGT (site CGTTAACCTAC)
0.751

I have this sequence here, CTAAAAGCTTGGGTTCTAACCTGTTGCCA (site TACTCCTCTCC) , and I need its recorded recombinant barcode read abundance (log10).
0.0219

Could you tell me which recombinant barcode read abundance (log10) is on file for AGTCTGCCTTGGGTTCTAACCTGTTGCTG (site GCCGATACTTG) ?
0.0929

Fill in the blank: the reported recombinant barcode read abundance (log10) of GTTACGGCTTGGGTTCTAACCTGTTGCCT (site GTTCCGGCTAG) is ____.
0.0623

Item under review: GAGAAATCTTGGGTTCTAACCTGTTGCCT (site GAGACATCTAG) . Reported recombinant barcode read abundance (log10)?
0.249

Recorded recombinant barcode read abundance (log10) for TTGAGTGCTTGGGTTCTAACCTGTTGCCT (site TTGACTGCTAG) , please?
0.0508

Query (sequence): CGGACGGCTTGGGTTCTAACCTGTTGCCT (site CGGACGTCTAG) ; field requested: recombinant barcode read abundance (log10)
0.271

Which value of recombinant barcode read abundance (log10) has been reported for GACGGATCTTGGGTTCTAACCTGTTGCAT (site GACGGATCTAC) in the records?
0.269

Consider the sequence shown here: CGTTGATCTTGGGTTCTAACCTGTTGCCT (site CGTTGATCTAG) What is its recorded recombinant barcode read abundance (log10)?
0.234

Field request: recombinant barcode read abundance (log10) | item: CTTAGTACTTGGGTTCTAACCTGTTGCAT (site GACGTGCCTCG)
0.432

Look at this sequence and give its reported recombinant barcode read abundance (log10). GCCCGGGCTTGGGTTCTAACCTGTTGCGG (site GCCCGGGCTCC)
2.39

Would you kindly share the measured recombinant barcode read abundance (log10) for TTGAGGACTTGGGTTCTAACCTGTTGCCT (site GTGAGGACTAG) ?
0

recombinant barcode read abundance (log10) lookup needed for CCAGGGACTTGGGTTCTAACCTGTTGCCT (site CCAGGGACTAG) , thanks.
1.31

Entry TCGTGCGCTTGGGTTCTAACCTGTTGCCT (site TCGTGCTCTAG) : reported recombinant barcode read abundance (log10) = ?
0

Given the sequence CGGAATTCTTGGGTTCTAACCTGTTGCCT (site CGTTATTCTAG) , what is its reported recombinant barcode read abundance (log10)?
0.743

recombinant barcode read abundance (log10) for TAGTGTGCTTGGGTTCTAACCTGTTGCCT (site TAGTGTACTAG) ?
0.514

What value of recombinant barcode read abundance (log10) has been recorded for this entry: GTGAGAGCTTGGGTTCTAACCTGTTGCGG (site GTGAGCACTCC)
0.0453

Item under review: ATCTAGGCTTGGGTTCTAACCTGTTGCCG (site ATCTAGGCTCG) . Reported recombinant barcode read abundance (log10)?
0.0337

If you can, please state the reported recombinant barcode read abundance (log10) value of GTCAGCTCTTGGGTTCTAACCTGTTGCTA (site GTCAGCTCTTA) .
1.16

Requested read-out: recombinant barcode read abundance (log10). Entry: GCGTTGCCTTGGGTTCTAACCTGTTGCCT (site GGGTTGCCTAG)
0.0557
